test: RP, Thermo Scientific Acclaim RSLC 120 C18, 100 × 2.1 mm, 2.2 µm, 30 °C, 0.2 mL/min, estimated dead time 1.1 min; A: 90% water + 10% methanol + 0.01% formic acid + 5 mM ammonium formate, pH 3.61; B: methanol + 0.01% formic acid + 5 mM ammonium formate, pH 3.61; gradient (min/%B) 0/1 1/1 2/39 13/99.9 15/99.9 15.1/1 20.1/1; conditions: stereoisomer not certain
property: LC retention time (min)
Form entry: value (min) — number only.

Data request: Please list LC retention time recorded for the compound O=C1NCCN1Cc1ccc(Cl)nc1
Data returned: 4.71

Data request: Tell us which LC retention time value is on record for Cc1ccc(Cl)c(OCC(O)CNC(C)(C)C)c1 (configuration not stated)
Data returned: 7.07

Data request: Let me know recorded LC retention time for CN1C(=O)CN=C(c2ccccc2)c2cc(Cl)ccc21 , thanks.
Data returned: 9.53

Data request: Item COCC(=O)N(c1c(C)cccc1C)N1CCOC1=O : provide LC retention time
Data returned: 6.29

Data request: Retrieve LC retention time measured for COc1ccc2[nH]cc(CCN(C(C)C)C(C)C)c2c1 and print it.
Data returned: 4.81

Data request: Read off the recorded LC retention time for CC(=O)Nc1nnc(S(N)(=O)=O)s1 [Acetazolamide]
Data returned: 3.43

Data request: Provide LC retention time value for the following compound: COC(=O)C1=C(C)NC(C)=C(C(=O)OC(C)C)C1c1cccc2nonc12 (configuration not stated)
Data returned: 9.61

Data request: Given Cn1ncc(N)c(Cl)c1=O , respond with its LC retention time.
Data returned: 3.53

Data request: Answer with the recorded LC retention time for the compound listed here: CCCCCn1cc(C(=O)Cc2ccccc2OC)c2ccccc21
Data returned: 11.8

Data request: Respond only with LC retention time recorded for CC(=O)Oc1ccc2c(CCN(C(C)C)C(C)C)c[nH]c2c1
Data returned: 4.88

Data request: Input CC1(C)CCC(Cc2ccc(Cl)cc2)C1(O)Cn1cncn1 (configuration not stated) , output reported LC retention time.
Data returned: 11.2

Data request: Read off the recorded LC retention time for NC1Cc2ccc(I)cc2C1 (configuration not stated)
Data returned: 5.87

Data request: State its LC retention time for this compound: CCCc1nn(C)c2c(=O)[nH]c(-c3cc(S(=O)(=O)N4CC(C)NC(C)C4)ccc3OCC)nc12 (configuration not stated)
Data returned: 7.6

Data request: Item CC1CC2C3CCC4=CC(=O)C=CC4(C)C3(F)C(O)CC2(C)C1(O)C(=O)CCl (configuration not stated) : provide LC retention time
Data returned: 9.44

Data request: Supply LC retention time value. Item: Fc1cccc(F)c1-c1nnc(-c2ccccc2Cl)nn1
Data returned: 10.8

Data request: Identify the reported LC retention time for the following entry. CN(C)C1C(=O)C(C(N)=O)=C(O)C2(O)C(=O)C3=C(O)c4c(O)cccc4C(C)(O)C3CC12 (configuration not stated)
Data returned: 4.7

Data request: Could you please provide reported LC retention time for CCCCCCCC[N+](C)(C)C ? Thanks!
Data returned: 6.08

Data request: Retrieve LC retention time measured for CN(C)CCOCC(=O)NC12CC3CC(CC(C3)C1)C2 and print it.
Data returned: 6.64

Data request: Give a short answer stating reported LC retention time for COC(=O)C(Cl)Cc1ccc(Cl)cc1 (configuration not stated) .
Data returned: 10.2

Data request: Determine its reported LC retention time: COC(=O)Nc1nc2ccccc2[nH]1
Data returned: 5.46

Data request: Consider the compound CCCc1nn(C)c2c(=S)nc(-c3cc(S(=O)(=O)N4CCN(CCO)CC4)ccc3OCC)[nH]c12 [Sildenafil-Hydroxythiohomo] and give its recorded LC retention time.
Data returned: 10.5

Data request: Return LC retention time for the following compound: CC(C)c1cc(Oc2ccccc2)cc(C(C)C)c1NC(=S)NC(C)(C)C
Data returned: 12.9

Data request: Hello, please tell me recorded LC retention time for this one: Clc1ccc(COC(Cn2ccnc2)c2ccc(Cl)cc2Cl)c(Cl)c1 (configuration not stated)
Data returned: 13

Data request: Please supply the value of reported LC retention time for the item CC(N)Cc1ccc2[nH]ccc2c1 (configuration not stated)
Data returned: 4.07

Data request: Return the recorded LC retention time value; entry: CCC(Cc1ccc2c(c1)OCO2)NC (configuration not stated)
Data returned: 4.66

Data request: Identify measured LC retention time associated with CC1(C(=O)Nc2ccc(O)c(Cl)c2Cl)CCCCC1 [Fenhexamide]
Data returned: 10.1

Data request: Give reported LC retention time value for COC=C(C(=O)OC)c1ccccc1COc1cc(C(F)(F)F)nc(OC(C)C)n1
Data returned: 11.5

Data request: For the compound Cc1c(C(C)C)c(=O)n(-c2ccccc2)n1C , report LC retention time.
Data returned: 7.23

Data request: Entry CC(C)NCC(O)c1ccc(N)c(C#N)c1 (configuration not stated) needs its LC retention time filled in; supply it.
Data returned: 2.99

Data request: Using known records, supply LC retention time for CC(C)(c1ccc(OCC2CO2)cc1)c1ccc(OCC2CO2)cc1 (configuration not stated)
Data returned: 10.8

Data request: Fill in reported LC retention time for this entry: COC(=O)C(C)Oc1cc(Cl)c(Cl)cc1Cl (configuration not stated) [Fenoprop-methylester (Silvex-methyester)]
Data returned: 11.5

Data request: Answer with the recorded LC retention time of CNC(=O)Oc1cc(C)c(SC)c(C)c1 only.
Data returned: 9.34

Data request: Identify LC retention time associated with the compound CC(N)C12CC3CC(CC(C3)C1)C2 (configuration not stated)
Data returned: 6.71

Data request: Specify measured LC retention time for CCCOCCN(C(=O)CCl)c1c(CC)cccc1CC .
Data returned: 11.8

Data request: Kindly indicate its recorded LC retention time. Item: CNC(=O)Oc1ccccc1OC(C)C
Data returned: 6.94

Data request: Fill in reported LC retention time for this entry: OC1(c2ccc(Cl)c(C(F)(F)F)c2)CCN(CCCC(c2ccc(F)cc2)c2ccc(F)cc2)CC1
Data returned: 10.1

Data request: For the compound CC(C)Cc1ccc(C(C)C(=O)O)cc1 (configuration not stated) , report LC retention time.
Data returned: 10.7
